List of GI50 values.
Tested on: A498
Experiment: NCI tumour cell line growth inhibition, 48 h
Active and inactive are the calls of the source. Rule as the data show it: active = GI50 up to about 1.1 µM and inactive = higher.

# COMPOUND, GI50
records = [
    ("O=C(CC(=O)c1cccc2ccccc12)C(=O)Nc1nccs1", "> 100 µM (inactive)"),
    ("CC[N+]1(C)CCC(O)(c2ccc(Cl)cc2)C(C(=O)c2ccc(Cl)cc2)C1 (stereo unspecified)", "27.9 µM (inactive)"),
    ("CN1CCCCC1CCN1CCCCC1 (stereo unspecified)", "> 100 µM (inactive)"),
    ("Nc1ncnc2c1ncn2Cc1cccc(CCl)c1", "15.2 µM (inactive)"),
    ("CN1C(NN)=NS(=O)(=O)c2ccccc21", "> 100 µM (inactive)"),
    ("COC(C/C=C\\C=C\\CC/C=C/CC(C)/C=C/C(=C\\C(=O)O)CC(=O)O)/C(C)=C\\C=C(/C)C(=O)O (stereo unspecified)", "> 100 µM (inactive)"),
]

====

Test system: SNB-19
Assay: NCI tumour cell line growth inhibition, 48 h
Active and inactive are the calls of the source. Rule as the data show it: active = GI50 up to about 1.1 µM and inactive = higher.

# COMPOUND, GI50
records = [
    ("CC(C)(C)OC(=O)NC(CCCCNC(=O)OCc1ccccc1)C(=O)NCCNc1ccc(NCCNC(=O)C(CCCCNC(=O)OCc2ccccc2)NC(=O)OC(C)(C)C)c2c1C(=O)c1ccccc1C2=O (centres undefined)", "10.5 µM (inactive)"),
    ("C[C@]12CCC3[C@@H](CC[C@@H]4c5nonc5CC[C@]34C)C1CCC(=O)N2 (some centres undefined)", "> 100 µM (inactive)"),
    ("C#CCCCC(=O)N(C(=O)C[S+]([O-])CC)c1ccccc1 (centres undefined)", "> 100 µM (inactive)"),
    ("COc1ccc(C(=O)C(C(=O)C(=O)Nc2nccs2)c2ccc(OC)cc2)cc1 (centres undefined)", "> 100 µM (inactive)"),
    ("Cc1cc(S(=O)(=O)O)ccc1/N=N/c1ccc(/N=N/c2c(O)ccc3ccccc23)c(C)c1", "> 100 µM (inactive)"),
    ("NC1CCC2(O)c3ccccc3C2C1 (centres undefined)", "> 100 µM (inactive)"),
    ("O=C(O)c1ccccn1", "> 100 µM (inactive)"),
    ("CCC(=O)OC[n+]1ccc2c(C)c3[nH]c4ccc(OC)cc4c3c(C)c2c1", "1.57 µM (inactive)"),
    ("COc1cc(C(C)c2cc3c(cc2OCCNC(=O)COc2cc4c(cc2C(C)c2cc(OC)c(OC)c(OC)c2)OCO4)OCO3)cc(OC)c1OC (centres undefined)", "> 100 µM (inactive)"),
]

====

Tested on: UACC-257
Assay: NCI tumour cell line growth inhibition, 48 h
Activity calls are given as the source filed them. Rule as the data show it: active = GI50 up to about 1.1 µM and inactive = higher.
List of GI50 values.

# COMPOUND, GI50
rows = [
    ("COc1ccc2c(c1)SC1=Nc3sc4cc(OC)ccc4[n+]3CN12", "30.4 µM (inactive)"),
    ("N#CC(/C(CCCC(=O)Nc1cccc([N+](=O)[O-])c1)=N\\NC(=O)c1c(O)ccc2ccccc12)c1nc2ccccc2s1 (centres undefined)", "35.5 µM (inactive)"),
    ("O=c1c2ccccc2[nH]c2cc(O)cc(O)c12", "45 µM (inactive)"),
    ("S=C1ON=C(c2ccccc2)/C1=C/Nc1ccccc1", "> 100 µM (inactive)"),
    ("COC(=O)c1c(C)[n+]([O-])c2cc(Cl)c(Cl)cc2[n+]1[O-]", "17.1 µM (inactive)"),
    ("CC(C)(C)NCC(COc1ccc([N+](=O)[O-])cc1)OP(c1ccccc1)c1ccccc1 (centres undefined)", "44 µM (inactive)"),
    ("COc1ccc2nc3ccc(OC)cc3c(S(=O)(=O)Cc3ccc([N+](=O)[O-])cc3)c2c1", "> 100 µM (inactive)"),
    ("CN1CCCCC1CCN1CCCCC1 (centres undefined)", "> 100 µM (inactive)"),
    ("COc1cc(C(C)c2cc3c(cc2OCCNC(=O)COc2cc4c(cc2C(C)c2cc(OC)c(OC)c(OC)c2)OCO4)OCO3)cc(OC)c1OC (centres undefined)", "6.56 µM (inactive)"),
]

Sourced from ChEMBL document CHEMBL1201862
